# testedOn: Bcl-2-related protein A1 (Mus musculus) (UniProt Q07440)
# assayOverview: off-target activity on mouse Bfl-1 – biochemical, counter-screen for UBC13 polyubiquitination inhibitor project, SAR follow-up (AID 504685)
# experimentalParameters: Bfl-1 counterscreen for UBC13 inhibitors
Calls of active or inactive are those of the source. How the calls were made is not given here.
Outcomes: active, inactive

1) CN(CCNC(=O)C1CCN(c2ncnc3c2nc2n3CCCCC2)CC1)Cc1ccccc1 = inactive
2) CC(=O)c1ccccc1OCC(O)CN1CCN(CCN2C(=O)c3cccc4cccc(c34)C2=O)CC1 (stereo not given) = active
3) O=C(C1CCN(c2ncnc3c2nc2n3CCCCC2)CC1)N1CCN(c2ccccn2)CC1 = inactive
4) O=C(CCCCCN1C(=O)c2ccccc2C1=O)Nc1ccc(S(=O)(=O)N2CCCCC2)cc1 = inactive
5) O=C(CCCCCN1C(=O)c2ccccc2C1=O)NCc1ccccn1 = inactive
6) CCN(Cc1ccccc1)S(=O)(=O)c1ccc(C(=O)N(CCCN(C)C)c2nc3cc(C)cc(C)c3s2)cc1 = inactive
7) Cc1ccc2nc(N(CCCN(C)C)C(=O)c3ccc4c(c3)CCCC4)sc2c1 = inactive
8) CC1(C)Cc2c(sc(NC(=O)COc3ccc(Cl)cc3Cl)c2C(N)=O)C(C)(C)N1 = inactive
9) O=C(C1CCN(c2ncnc3c2nc2n3CCCCC2)CC1)N1CCC(Cc2ccccc2)CC1 = inactive
10) COc1ccc(CCNC(=O)CCCCCN2C(=O)c3ccccc3C2=O)cc1 = inactive

====

# testedOn: Bcl-2-related protein A1 (Mus musculus)
# assayOverview: off-target activity on mouse Bfl-1 – biochemical, counter-screen for UBC13 polyubiquitination inhibitor project, SAR follow-up (AID 504685)
# experimentalParameters: Bfl-1 counterscreen for UBC13 inhibitors
Active and inactive are the calls of the source. No rule for the calls is given here.
Outcomes: true = active, false = inactive

1) O=C(CCCCCN1C(=O)c2ccccc2C1=O)Nc1ccc(S(=O)(=O)Nc2ncccn2)cc1 = false
2) COc1cc(/C=C/c2cc[n+](C)cc2)ccc1OCC(=O)Nc1ccc(Cl)c(Cl)c1 = true
3) O=C(CCCn1c(=O)c2ccccc2n(Cc2ccc(Cl)cc2)c1=O)NC1CCN(Cc2ccccc2)CC1 = false
4) COc1ccc(C(=O)Nn2c(C)nc3ccccc3c2=O)cc1 = false
5) O=C(NCC1CCN(Cc2ccc(F)cc2)CC1)C1CCCN(c2ncnc3c2nc2n3CCCCC2)C1 (centres undefined) = false
6) O=C1c2cccc3cccc(c23)C(=O)N1CCN1CCN(CC(O)COc2ccccc2)CC1 (centres undefined) = false
7) CC(NC(=O)CCCCCN1C(=O)c2ccccc2C1=O)c1nc(-c2ccccc2)no1 (centres undefined) = false
8) O=C(NCCCN1CCN(c2ccccc2)CC1)C1CCCN(c2ncnc3c2nc2n3CCCCC2)C1 (centres undefined) = false
9) COc1ccc(C)c2sc(N(CCCN(C)C)C(=O)c3ccc(S(=O)(=O)N(C)C)cc3)nc12 = false
10) Cc1ccccc1CN1CCC(CNC(=O)C2CCCN(c3ncnc4c3nc3n4CCCCC3)C2)CC1 (centres undefined) = false
11) O=C(C1CCN(c2ncnc3c2nc2n3CCCCC2)CC1)N1CCN(Cc2ccccc2)CC1 = false
12) O=C(Nc1ccc(F)c(Cl)c1)C1CCN(c2ncnc3c2nc2n3CCCCC2)CC1 = false
13) CC1CN(S(=O)(=O)c2ccc(NC(=O)CCCCCN3C(=O)c4ccccc4C3=O)cc2)CC(C)O1 (centres undefined) = false
14) O=C1c2cccc3cccc(c23)C(=O)N1CCN1CCN(CC(O)COc2ccc(Cl)cc2)CC1 (centres undefined) = false
15) COc1ccc(COCC(O)CN2CCC(CN3C(=O)c4cccc5cccc(c45)C3=O)CC2)cc1OC (centres undefined) = false
16) CN(C)CCCN(C(=O)c1ccc(S(=O)(=O)N2CCCCCC2)cc1)c1nc2ccc(Br)cc2s1 = false
17) O=C(CCCn1c(=O)c2ccccc2n(Cc2ccccc2F)c1=O)NC1CCN(Cc2ccccc2)CC1 = false
18) COc1ccccc1NC(=S)NC(=O)CCCCCN1C(=O)c2ccccc2C1=O = false
19) CCC1CCCCN1CCCNC(=O)C1CCN(c2ncnc3c2nc2n3CCCCC2)CC1 (centres undefined) = false

====

# testedOn: Bcl-2-related protein A1 (Mus musculus)
# assayOverview: off-target activity on mouse Bfl-1 – biochemical, counter-screen for UBC13 polyubiquitination inhibitor project, SAR follow-up (AID 504685)
# experimentalParameters: Bfl-1 counterscreen for UBC13 inhibitors
Calls of active or inactive are those of the source. The rule behind the calls is not given here.
Outcomes: active, inactive

1) CCCOC(=O)c1ccc(NC(=O)CCCCCN2C(=O)c3ccccc3C2=O)cc1 = inactive
2) CCN(Cc1ccccc1)S(=O)(=O)c1ccc(C(=O)N(CCCN(C)C)c2nc3cc4c(cc3s2)OCCO4)cc1 = active
3) COc1ccc2sc(N(CCCN(C)C)C(=O)c3ccc(S(=O)(=O)N(C)Cc4ccccc4)cc3)nc2c1 = active
4) O=C1c2cccc3cccc(c23)N1Cc1ccc(F)cc1 = inactive
5) CC(=O)c1ccc(OCC(O)CN2CCN(CCN3C(=O)c4cccc5cccc(c45)C3=O)CC2)cc1 (centres undefined) = active
6) CNCc1cc(Br)c(OCC(=O)Nc2ccccc2OC)c(OC)c1 = inactive
7) Cc1ccccc1OCC(O)CN1CCN(CCN2C(=O)c3cccc4cccc(c34)C2=O)CC1 (centres undefined) = inactive
8) CCCCOC(=O)c1cccc(NC(=O)CCCCCN2C(=O)c3ccccc3C2=O)c1 = inactive
9) CN(C)CCCN(C(=O)c1ccc(S(=O)(=O)N2CCCCC2)cc1)c1nc2cc3c(cc2s1)OCO3 = inactive

====

# testedOn: UniProt Q07440
# assayOverview: off-target activity on mouse Bfl-1 – biochemical, counter-screen for UBC13 polyubiquitination inhibitor project, SAR follow-up (AID 504685)
# experimentalParameters: Bfl-1 counterscreen for UBC13 inhibitors
The source made the active and inactive calls. The rule behind the calls is not given here.
Outcomes: active, inactive

1) CCN(Cc1ccccc1)S(=O)(=O)c1ccc(C(=O)N(CCCN(C)C)c2nc3cc4c(cc3s2)OCO4)cc1 = active
2) O=C(c1ccc(S(=O)(=O)N2CCCC2)cc1)N1CCC(CN2C(=O)c3cccc4cccc(c34)C2=O)CC1 = inactive
3) CN(C)CCCN(C(=O)c1ccc(S(=O)(=O)N2CCCCCC2)cc1)c1nc2cc3c(cc2s1)OCCO3 = inactive
4) Cc1cc(NC(=O)Cn2c(=O)n(CCCCC(=O)NC3CCN(Cc4ccccc4)CC3)c(=O)c3ccccc32)n[nH]1 = inactive
5) CCOC(=O)c1c(NC(=O)COc2ccccc2C#N)sc2c1CC(C)(C)NC2(C)C = inactive
6) C=CCc1ccccc1OCC(O)CN1CCN(CCN2C(=O)c3cccc4cccc(c34)C2=O)CC1 (stereo not drawn) = inactive
7) O=C(NCC1CCN(Cc2cccc(Cl)c2)CC1)C1CCCN(c2ncnc3c2nc2n3CCCCC2)C1 (stereo not drawn) = inactive
8) CCOc1ccc2nc(N(CCCN(C)C)C(=O)c3ccc(S(=O)(=O)N4CCc5ccccc5C4)cc3)sc2c1 = inactive

====

# testedOn: Bcl-2-related protein A1 (Mus musculus)
# assayOverview: off-target activity on mouse Bfl-1 – biochemical, counter-screen for UBC13 polyubiquitination inhibitor project, SAR follow-up (AID 504685)
# experimentalParameters: Bfl-1 counterscreen for UBC13 inhibitors
Activity calls are given as the source filed them. No rule for the calls is given here.
Outcomes: active, inactive

1. O=C(C1CCN(c2ncnc3c2nc2n3CCCCC2)CC1)N1CCN(c2ccccc2)CC1 = inactive
2. Cc1cc(OCC(O)CN2CCN(CCN3C(=O)c4cccc5cccc(c45)C3=O)CC2)ccc1C(C)C (stereo unspecified) = inactive
3. Cc1cc(C)c2sc(N(CCCN(C)C)C(=O)c3ccc(S(=O)(=O)N(C)C4CCCCC4)cc3)nc2c1 = inactive
4. COC(=O)C1=C(NC(=O)CCCCCN2C(=O)c3ccccc3C2=O)SC2CCCC12 (stereo unspecified) = inactive
5. COc1cc2nc(N(CCCN(C)C)C(=O)c3ccc(S(=O)(=O)N4CCc5ccccc5C4)cc3)sc2cc1OC = active
6. COc1ccc(OC)c2sc(N(CCCN(C)C)C(=O)c3ccc(S(=O)(=O)N4CCc5ccccc5C4)cc3)nc12 = active

====

# testedOn: Bcl-2-related protein A1 (Mus musculus)
# assayOverview: off-target activity on mouse Bfl-1 – biochemical, counter-screen for UBC13 polyubiquitination inhibitor project, SAR follow-up (AID 504685)
# experimentalParameters: Bfl-1 counterscreen for UBC13 inhibitors
Activity calls are given as the source filed them. No rule for the calls is given here.
Outcomes: active, inactive

1) COc1cccc(OCC(O)CN2CCN(CCN3C(=O)c4cccc5cccc(c45)C3=O)CC2)c1 (centres undefined) = inactive
2) CC1CCCCN1C(=O)C1CCN(c2ncnc3c2nc2n3CCCCC2)CC1 (centres undefined) = inactive
3) CN(C)CCCn1c(SCC(=O)Nc2nc(-c3cccc(Br)c3)cs2)nc2ccccc2c1=O = active
4) CN(C)CCCN(C(=O)c1ccc(S(=O)(=O)N(C)Cc2ccccc2)cc1)c1nc2cc3c(cc2s1)OCO3 = active
5) O=C(CCCCCN1C(=O)c2ccccc2C1=O)N1CCN(c2ccc([N+](=O)[O-])cc2)CC1 = inactive
6) O=C(CCCCn1c(=O)c2ccccc2n(Cc2ccccc2F)c1=O)NC1CCN(Cc2ccccc2)CC1 = inactive
7) Cc1ccc(C)c(OCC(O)CN2CCN(CCN3C(=O)c4cccc5cccc(c45)C3=O)CC2)c1 (centres undefined) = inactive
8) COCCOC(=O)c1ccc(NC(=O)CCCCCN2C(=O)c3ccccc3C2=O)cc1 = inactive
9) CN(C)CCCN(C(=O)c1ccc2c(c1)CCCC2)c1nc2ccc(Cl)cc2s1 = inactive
